Target: BaF3 (EGFR Del19/C797S) (Homo sapiens, UniProt P00533, C797S, cells depend on it, form not given)
Construct: BaF3 (EGFR Del19/C797S)|DC|RPMI1640 + 10% FBS
Sequence (P00533 with tags, fused parts or gaps DEL746-750/C797S, form open): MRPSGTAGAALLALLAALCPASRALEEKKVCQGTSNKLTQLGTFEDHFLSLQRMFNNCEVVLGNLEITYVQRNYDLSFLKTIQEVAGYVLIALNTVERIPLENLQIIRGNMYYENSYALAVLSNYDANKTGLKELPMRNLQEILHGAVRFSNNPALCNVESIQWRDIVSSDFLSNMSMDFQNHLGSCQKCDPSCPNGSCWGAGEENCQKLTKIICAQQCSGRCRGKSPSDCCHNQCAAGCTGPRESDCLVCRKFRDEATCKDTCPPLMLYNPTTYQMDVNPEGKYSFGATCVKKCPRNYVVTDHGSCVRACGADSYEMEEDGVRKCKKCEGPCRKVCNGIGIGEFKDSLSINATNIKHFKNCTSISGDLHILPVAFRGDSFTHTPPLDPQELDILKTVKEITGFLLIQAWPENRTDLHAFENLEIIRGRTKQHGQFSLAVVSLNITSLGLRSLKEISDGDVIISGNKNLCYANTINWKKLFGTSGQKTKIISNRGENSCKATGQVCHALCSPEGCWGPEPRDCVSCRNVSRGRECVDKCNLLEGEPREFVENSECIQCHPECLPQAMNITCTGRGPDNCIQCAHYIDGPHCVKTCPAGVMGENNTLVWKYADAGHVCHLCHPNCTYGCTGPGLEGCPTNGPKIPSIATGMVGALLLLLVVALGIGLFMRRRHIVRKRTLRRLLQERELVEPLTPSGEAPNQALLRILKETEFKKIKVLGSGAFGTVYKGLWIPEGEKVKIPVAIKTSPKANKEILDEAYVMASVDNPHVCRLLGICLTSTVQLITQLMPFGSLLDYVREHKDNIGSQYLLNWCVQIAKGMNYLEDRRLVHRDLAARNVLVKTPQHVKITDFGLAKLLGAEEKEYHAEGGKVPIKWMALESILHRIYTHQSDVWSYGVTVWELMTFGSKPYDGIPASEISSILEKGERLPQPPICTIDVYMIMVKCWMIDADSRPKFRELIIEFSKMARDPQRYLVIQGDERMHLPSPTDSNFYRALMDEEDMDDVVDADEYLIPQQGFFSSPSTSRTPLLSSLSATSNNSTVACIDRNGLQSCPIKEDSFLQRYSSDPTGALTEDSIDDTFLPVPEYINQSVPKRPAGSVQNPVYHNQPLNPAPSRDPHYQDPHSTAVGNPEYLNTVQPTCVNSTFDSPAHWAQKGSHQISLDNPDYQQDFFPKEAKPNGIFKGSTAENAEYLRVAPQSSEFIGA
Test: Cell proliferation IC50 assay (Cell Titer GLO), BaF3 DC cells
Format: cell-based, mouse
Details: Table 6, 72 h
measure.name: IC50 (nM)

The following compounds have reported results that may help.
compound	IC50 (nM)
CCc1cc(Nc2ncc(Cl)c(Nc3ccccc3P(C)(C)=O)n2)c(OC)cc1N1CCC(N2CCN(CCOc3cccc4c3CN(C3CCC(=O)NC3=O)C4=O)C3(CC3)C2)CC1 (stereo not drawn)	35.2
CCc1cc(Nc2ncc(Cl)c(Nc3ccccc3P(C)(C)=O)n2)c(OC)cc1N1CCC(N2CCN(CCCc3cccc4c3CN(C3CCC(=O)NC3=O)C4=O)C(=O)C2)CC1 (stereo not drawn)	12.1
CCc1cc(Nc2ncc(Cl)c(Nc3ccccc3P(C)(C)=O)n2)c(OC)cc1N1CCC(N2CCc3ccc(Oc4cccc5c4CN(C4CCC(=O)NC4=O)C5=O)cc3CC2)CC1 (stereo not drawn)	2.5
CCc1cc(Nc2ncc(Cl)c(Nc3ccccc3P(C)(C)=O)n2)c(OC)cc1N1CCC2(CCN(CCCC#Cc3c(F)ccc4c3CN(C3CCC(=O)NC3=O)C4=O)CC2)CC1 (stereo not drawn)	37.6
CCc1cc(Nc2ncc(Cl)c(Nc3ccccc3P(C)(C)=O)n2)c(OC(F)(F)F)cc1N1CCC(N2CCN(CCOc3cccc4c3CN(C3CCC(=O)NC3=O)C4=O)CC2)CC1 (stereo not drawn)	16.2

[a] CCc1cc(Nc2ncc(C(=O)OC(C)C)c(Nc3ccccc3P(C)(C)=O)n2)c(OC)cc1N1CCC(N2CCN(CCCCOc3cccc4c3CN(C3CCC(=O)NC3=O)C4=O)CC2)CC1 (stereo not drawn)
[b] CCc1cc(Nc2ncc(-n3cnc(C)c3)c(Nc3ccccc3P(C)(C)=O)n2)c(OC)cc1N1CCC(N2CCN(CCOc3ccc4c(c3)CN(C3CCC(=O)NC3=O)C4=O)CC2)CC1 (stereo not drawn)
[c] CCc1cc(Nc2ncc(-c3cnn(C)c3)c(Nc3ccc(C)cc3P(C)(C)=O)n2)c(OC)cc1N1CCC(N2CCN(Cc3ccc4c(c3)CN(C3CCC(=O)NC3=O)C4=O)CC2)CC1 (stereo not drawn)
[d] CCc1cc(Nc2ncc(-c3cc(C)n[nH]3)c(Nc3ccccc3P(C)(C)=O)n2)c(OC)cc1N1CCC(N2CCN(CCOc3ccc4c(c3)CN(C3CCC(=O)NC3=O)C4=O)CC2)CC1 (stereo not drawn)
[e] [2H]C([2H])([2H])C([2H])([2H])c1cc(Nc2ncc(Cl)c(Nc3ccccc3P(C)(C)=O)n2)c(OC)cc1N1CCC(N2CCN(CCOc3ccc4c(c3)CN(C3CCC(=O)NC3=O)C4=O)CC2)CC1 (stereo not drawn)
Order each entry by recorded IC50, climbing from the minimum. Give the labels in the order requested.
c, b, e, a, d

[A] CCc1cc(Nc2nc(Nc3ccccc3P(C)(C)=O)c3cc[nH]c3n2)c(OC)cc1N1CCC(N2CCN(CCCCOc3cc(F)cc4c3CN(C3CCC(=O)NC3=O)C4=O)CC2)CC1 (stereo not drawn)
[B] CCc1cc(Nc2ncc(Cl)c(Nc3ccccc3P(C)(C)=O)n2)c(OC)cc1N1CCC(N2CCN(CCCCCc3cccc4c3CN(C3CCC(=O)NC3=O)C4=O)CC2)CC1 (stereo not drawn)
[C] COc1cc2c(cc1Nc1ncc(Cl)c(Nc3ccccc3P(C)(C)=O)n1)CCN(C1CCN(CCCCOc3cccc4c3CN(C3CCC(=O)NC3=O)C4=O)CC1)C2 (stereo not drawn)
[D] CCc1cc(Nc2ncc(-c3ccn(C)n3)c(Nc3ccccc3P(C)(C)=O)n2)c(OC)cc1N1CCC(N2CCN(CCOc3cccc4c3CN(C3CCC(=O)NC3=O)C4=O)CC2)CC1 (stereo not drawn)
[E] CCc1cc(Nc2ncc(Cl)c(Nc3ccccc3P(C)(C)=O)n2)c(OC)cc1N1CCC(N2CCN(CCCCOc3cccc4c3CN(C3CCC(=O)NC3=O)C4=O)CC2=O)CC1 (stereo not drawn)
Rank the 5 compounds: largest IC50 first, smallest last. Respond with an ordered listing of the labels, as requested.
D, C, A, E, B
(D: 56.1 nM, C: 33 nM, A: 14.7 nM, E: 6.8 nM, B: 4.2 nM)

[1] CCc1cc(Nc2ncc(Cl)c(Nc3ccccc3P(C)(C)=O)n2)c(OC)cc1N1CCC(N(C)CCCCOc2cccc3c2CN(C2CCC(=O)NC2=O)C3=O)CC1 (stereo not drawn)
[2] CCc1cc(Nc2ncc(Cl)c(Nc3ccccc3P(C)(C)=O)n2)cc(C#N)c1N1CCC(N2CCN(CCC#Cc3cccc4c3CN(C3CCC(=O)NC3=O)C4=O)CC2)CC1 (stereo not drawn)
Looking at recorded values for IC50, does 1 or 2 come in lower? Reply with the label of the item you choose.
1
(1: 4.3 nM, 2: 40.2 nM)

[1] CCc1cc(Nc2ncc(-n3ccnn3)c(Nc3ccccc3P(C)(C)=O)n2)c(OC)cc1N1CCC(N2CCN(CCOc3ccc4c(c3)CN(C3CCC(=O)NC3=O)C4=O)CC2)CC1 (stereo not drawn)
[2] CCc1cc(Nc2ncc(Cl)c(Nc3ccccc3P(C)(C)=O)n2)c(OC)cc1N1CCC(N2CCN(C(=O)CCCOc3cccc4c3CN(C3CCC(=O)NC3=O)C4=O)CC2)CC1 (stereo not drawn)
Which item exceeds the other in IC50, 1 or 2 ? Answer = label.
2

* * *

Biological target: BaF3 (EGFR Del19/C797S) (Homo sapiens, UniProt P00533, C797S, cells depend on it, form not given)
Construct: BaF3 (EGFR Del19/C797S)|DC|RPMI1640 + 10% FBS
Test: Cell proliferation IC50 assay (Cell Titer GLO), BaF3 DC cells
Type: cell-based, mouse
Details: Table 6, 72 h
Procedure: IC50 of compounds in the present invention was determined by Cell Titer GLO reagent from Promega. The procedures are as follows: Tumor cells were cultured in specified medium in an incubator at 37° C. and 5% CO2. The cells were passaged periodically. […] The cell viability assay was performed by adding the detection reagents to the cell culture media according to Cell Titer GLO reagent instructions and detecting luminescent signals on an EnVision microplate reader (PerkinElmer). […]
pIC50: −log10 of the molar value.
measure.name: pIC50

Answered examples (3):
compound	obs.value
CCc1cc(Nc2ncc(Cl)c(Nc3ccccc3P(C)(C)=O)n2)c(OC)cc1N1CCC(N2CCN(CCCCOc3cccc4c3CN(C3CCC(=O)NC3=O)C4=O)C(=O)C2)CC1 (centres unmarked) [Example E87]	8.28
COc1cc(N2CCC(N3CCN(CCCCOc4cccc5c4CN(C4CCC(=O)NC4=O)C5=O)CC3)CC2)c(CO)cc1Nc1ncc(Cl)c(Nc2ccccc2P(C)(C)=O)n1 (centres unmarked) [Example E127]	8.06
CCc1cc(Nc2ncc(-n3cccn3)c(Nc3ccccc3P(C)(C)=O)n2)c(OC)cc1N1CCC(N2CCN(CCOc3cccc4c3CN(C3CCC(=O)NC3=O)C4=O)CC2)CC1 (centres unmarked) [Example E165]	8.38

[a] CCc1cc(Nc2ncc(-c3cnn(C)c3)c(Nc3ccccc3P(C)(C)=O)n2)c(OC)cc1N1CCC(N2CCN([C@H]3C[C@@H](Oc4cccc5c4CN(C4CCC(=O)NC4=O)C5=O)C3)CC2)CC1 (some centres unmarked) [Example E69]
[b] CCc1cc(Nc2ncc(Cl)c(Nc3ccccc3P(C)(C)=O)n2)c(OC)cc1N1CCC2(CC1)CC(N(C)CCCC#Cc1cccc3c1CN(C1CCC(=O)NC1=O)C3=O)C2 (centres unmarked) [Example E60]
Identify the entry with the smaller pIC50: a or b . Please identify the chosen entry by its label.
b

* * *

Target: BaF3 (EGFR Del19/C797S) (Homo sapiens, UniProt P00533, C797S, cells depend on it, form not given)
Construct: BaF3 (EGFR Del19/C797S)|DC|RPMI1640 + 10% FBS
Assay: Cell proliferation IC50 assay (Cell Titer GLO), BaF3 DC cells
Type: cell-based, mouse
Conditions: Table 6, 72 h
pIC50: −log10 of the molar value.
measure.name: pIC50

Consider the reported pIC50 for these compounds:
compound	pIC50
CCc1cc(Nc2ncc(Cl)c(Nc3ccccc3P(C)(C)=O)n2)c(OC)cc1N1CCC(N2CCC3(CCC(Cc4cccc5c4CN(C4CCC(=O)NC4=O)C5=O)CC3)C2)CC1 (centres unmarked) [Example E45]	8.07
CCc1cc(Nc2ncc(Cl)c(Nc3ccccc3P(C)(C)=O)n2)c(OC)cc1N1CCC(N2CCC3(CCC(=Cc4cccc5c4CN(C4CCC(=O)NC4=O)C5=O)CC3)C2)CC1 (centres unmarked) [Example E40]	8.31

[A] CCc1cc(Nc2ncc(-n3cncn3)c(Nc3ccccc3P(C)(C)=O)n2)c(OC)cc1N1CCC(N2CCN(CCOc3cccc4c3CN(C3CCC(=O)NC3=O)C4=O)CC2)CC1 (centres unmarked) [Example E171]
[B] CCc1cc(Nc2nc(Nc3ccccc3P(C)(C)=O)c3cc[nH]c3n2)c(C(F)(F)F)cc1N1CCC(N2CCN(CCCCOc3cccc4c3CN(C3CCC(=O)NC3=O)C4=O)CC2)CC1 (centres unmarked) [Example E154]
[C] COCc1cc(Nc2ncc(Cl)c(Nc3ccccc3P(C)(C)=O)n2)c(OC)cc1N1CCC(N2CCN(CCCCOc3cccc4c3CN(C3CCC(=O)NC3=O)C4=O)CC2)CC1 (centres unmarked) [Example E125]
Ascending sort, pIC50. Please respond with the labels ordered as the question requires.
B, C, A
(B: 6.35, C: 7.74, A: 8.20)
